tested on: T. cruzi INC-5 epimastigotes; experiment: Viability (MTT) assay on T. cruzi epimastigotes; format: cell-based, Trypanosoma cruzi; settings: Trypanosoma cruzi, 24 h, mean and SD of triplicate
Below, each entry is listed with its recorded IC50.

MOLECULE	TGT	UNIT_DESCRIPTOR	OPERATOR	IC50
CC(=O)c1c(C(F)(F)F)[n+]([O-])c2ccc(C(=O)OC(C)C)cc2[n+]1[O-] [Compound T-070]	T. cruzi INC-5 epimastigotes	µM	=	2.83
CCCOC(=O)c1ccc2c(c1)[n+]([O-])c(C(=O)Nc1ccccc1)c(C)[n+]2[O-] [Compound T-125]	T. cruzi INC-5 epimastigotes	µM	>	130
CCCOC(=O)c1ccc2c(c1)[n+]([O-])c(C(C)=O)c(C)[n+]2[O-] [Compound T-126]	T. cruzi INC-5 epimastigotes	µM	>	163
CC1CS(=O)(=O)CCN1/N=C/c1ccc([N+](=O)[O-])o1 (stereo not shown) [Nfx, nifurtimox, reference compound]	T. cruzi INC-5 epimastigotes	µM	=	8.74

====

Below, each entry is listed with its recorded CC50.
test system: T. cruzi bloodstream trypomastigotes INC-5 strain; assay: microbe, parasite or virus in culture; format: cell-based; conditions: Trypanosoma cruzi, 24 h, bloodstream trypomastigotes, 24 h at 4 °C (called IC50 in abstract); read-out: LC50 INC-5 Strain
READOUT_NAME: CC50 (µM)

MOLECULE	NUMERIC_RESULT
CCCOC(=O)c1ccc2c(c1)[n+]([O-])c(C(=O)c1cccs1)c(C(F)(F)F)[n+]2[O-]	122
CC(C)OC(=O)c1ccc2c(c1)[n+]([O-])c(C(=O)C(C)C)c(C(F)(F)F)[n+]2[O-]	73
CC(C)OC(=O)c1ccc2c(c1)[n+]([O-])c(C(=O)c1ccccc1)c(C(F)(F)F)[n+]2[O-]	103
CC(C)OC(=O)c1ccc2c(c1)[n+]([O-])c(C(=O)c1cccs1)c(C(F)(F)F)[n+]2[O-]	111
O=C(Cn1ccnc1[N+](=O)[O-])NCc1ccccc1 [Bnz, benznidazole, reference compound]	85.3

====

Below, each entry is listed with its recorded inhibition at 40 µM.
Molecular target: recombinant T. cruzi TR (Trypanosoma cruzi, UniProt P28593)
Construct: made in house
Sequence (P28593 whole entry): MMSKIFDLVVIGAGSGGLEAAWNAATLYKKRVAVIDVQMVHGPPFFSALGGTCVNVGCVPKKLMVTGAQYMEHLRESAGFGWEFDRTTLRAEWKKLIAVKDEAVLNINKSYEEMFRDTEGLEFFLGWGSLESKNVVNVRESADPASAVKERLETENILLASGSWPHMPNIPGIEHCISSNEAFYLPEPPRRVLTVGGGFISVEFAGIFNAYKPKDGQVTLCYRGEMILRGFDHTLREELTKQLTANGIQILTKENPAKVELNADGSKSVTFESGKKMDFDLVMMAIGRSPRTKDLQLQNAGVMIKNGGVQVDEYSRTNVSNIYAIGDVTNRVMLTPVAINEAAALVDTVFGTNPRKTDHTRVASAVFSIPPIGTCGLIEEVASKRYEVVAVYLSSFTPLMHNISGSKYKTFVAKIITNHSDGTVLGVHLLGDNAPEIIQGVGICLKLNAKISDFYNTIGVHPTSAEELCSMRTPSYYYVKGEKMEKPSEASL
Assay: TR enzyme inhibition (NADPH consumption at 340 nm)
Type: biochemical
Details: inhibitor 40 µM; 40 µM TS2; read-out: % Inhibition of TR at 40 µM [TS2]
Method: Trypanothione disulfide (TS2) and recombinant T. cruzi TR were prepared following published procedures. Recombinant human glutathione reductase (GR) was kindly provided by Dr. Heiner Schirmer, Heidelberg Germany. Stock solutions (5 mM) of the inhibitors were prepared in DMSO. […] TR activity was measured at 25 °C in a total volume of 1 mL TR assay buffer (40 mM HEPES, 1 mM EDTA, pH 7.5 [47]) containing 100 μM NADPH and 5–10 mU enzyme in the absence and presence of the inhibitor. […]
READOUT_NAME: inhibition at 40 µM (%)

SMILES_REPRESENTATION	READOUT_NAME	NUMERIC_RESULT
COC(=O)c1ccc2c(c1)[n+]([O-])c(C(=O)c1ccccc1)c(C)[n+]2[O-]	inhibition at 40 µM	9
COC(=O)c1ccc2c(c1)[n+]([O-])c(C(=O)OC(C)(C)C)c(C)[n+]2[O-]	inhibition at 40 µM	0
COC(=O)c1ccc2c(c1)[n+]([O-])c(C(N)=O)c(C)[n+]2[O-]	inhibition at 40 µM	0
CC(C)OC(=O)c1ccc2c(c1)[n+]([O-])c(C(=O)C(C)C)c(C(F)(F)F)[n+]2[O-]	inhibition at 40 µM	55.1

Hey, just so you know, these numbers are from paper PMC6155662.
